- target: ROCK1 (Homo sapiens (Human))
- Sequence (Q13464 whole entry): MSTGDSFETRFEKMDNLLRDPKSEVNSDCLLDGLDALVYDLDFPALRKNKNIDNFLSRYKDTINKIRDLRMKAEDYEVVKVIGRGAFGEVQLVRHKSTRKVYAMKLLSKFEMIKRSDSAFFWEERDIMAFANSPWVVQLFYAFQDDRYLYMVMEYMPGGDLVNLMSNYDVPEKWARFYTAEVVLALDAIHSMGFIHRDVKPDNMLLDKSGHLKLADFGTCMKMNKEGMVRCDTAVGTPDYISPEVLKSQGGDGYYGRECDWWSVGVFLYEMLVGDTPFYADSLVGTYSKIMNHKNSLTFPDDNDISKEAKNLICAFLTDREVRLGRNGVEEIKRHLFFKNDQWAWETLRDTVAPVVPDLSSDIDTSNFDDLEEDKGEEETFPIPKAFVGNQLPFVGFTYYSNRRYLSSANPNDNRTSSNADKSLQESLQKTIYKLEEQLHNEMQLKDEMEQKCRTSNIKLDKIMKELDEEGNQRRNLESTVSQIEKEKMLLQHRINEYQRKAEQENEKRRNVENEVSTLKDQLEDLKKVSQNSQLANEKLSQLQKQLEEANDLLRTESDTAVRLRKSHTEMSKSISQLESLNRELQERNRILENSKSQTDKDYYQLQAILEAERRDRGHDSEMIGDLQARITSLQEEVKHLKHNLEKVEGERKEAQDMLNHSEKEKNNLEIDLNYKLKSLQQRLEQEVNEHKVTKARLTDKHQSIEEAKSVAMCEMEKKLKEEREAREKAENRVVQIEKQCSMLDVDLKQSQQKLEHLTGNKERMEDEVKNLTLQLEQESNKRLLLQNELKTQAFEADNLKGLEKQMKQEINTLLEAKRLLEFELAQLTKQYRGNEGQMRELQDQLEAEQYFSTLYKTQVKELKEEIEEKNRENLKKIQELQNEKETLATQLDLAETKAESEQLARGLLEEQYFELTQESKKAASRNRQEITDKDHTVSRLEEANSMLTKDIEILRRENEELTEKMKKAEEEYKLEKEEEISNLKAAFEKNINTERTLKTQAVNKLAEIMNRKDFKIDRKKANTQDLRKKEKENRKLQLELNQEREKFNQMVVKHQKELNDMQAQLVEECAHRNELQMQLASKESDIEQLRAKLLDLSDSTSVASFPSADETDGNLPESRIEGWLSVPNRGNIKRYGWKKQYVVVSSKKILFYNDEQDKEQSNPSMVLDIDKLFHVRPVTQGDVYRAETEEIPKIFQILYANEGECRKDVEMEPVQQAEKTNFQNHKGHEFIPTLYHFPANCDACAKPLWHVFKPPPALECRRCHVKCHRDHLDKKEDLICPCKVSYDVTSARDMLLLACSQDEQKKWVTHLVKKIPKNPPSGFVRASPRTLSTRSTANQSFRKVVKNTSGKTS
- assayOverview: Z-lyte FRET assay to measure kinase inhibition, ROCK1
- Format: biochemical
- measurementParameters: read-out: ROCK1 % inhibition @ 50 μM, 50 μM compound
reportedEndpoint: inhibition at 50 µM (%)

[
  {
    "chemicalStructure": "Nc1nccc(N2CCc3ccc(F)cc32)n1",
    "reportedEndpoint": "inhibition at 50 µM",
    "unitOfMeasurement": "%",
    "valueReported": 89
  },
  {
    "chemicalStructure": "Cc1ccc2c(ccn2-c2ccnc(N)n2)c1",
    "reportedEndpoint": "inhibition at 50 µM",
    "unitOfMeasurement": "%",
    "valueReported": 82
  },
  {
    "chemicalStructure": "Nc1nccc(-n2ccc3ccc(Cl)cc32)n1",
    "reportedEndpoint": "inhibition at 50 µM",
    "unitOfMeasurement": "%",
    "valueReported": 88
  }
]
